# testedSystem: UDPGDH (UDP-glucose 6-dehydrogenase) (Rattus norvegicus)
# assayText: Inhibition of UDPGDH in rat hepatocytes assessed as decrease in bilirubin diglucuronide level at 50 uM preincubated for 2 mins followed by UDPGA addition measured after 45 mins by HPLC analysis relative to control
# Format: cell-based
# assaySetup: probe bilirubin (readout: bilirubin diglucuronide level)

>  <compound>
Sc1ncnc2nc[nH]c12 [MERCAPTOPURINE ANHYDROUS]

>  <testedSystem>
UDPGDH (UDP-glucose 6-dehydrogenase) (Rattus norvegicus)

>  <inhibition at 0.75 h, 50 µM, %>
26

$$$$

* * *

# testedSystem: UDPGDH (UDP-glucose 6-dehydrogenase) (Rattus norvegicus)
# assayText: Inhibition of UDPGDH in rat hepatocytes assessed as decrease in bilirubin monoglucuronide level at 50 uM preincubated for 2 mins followed by UDPGA addition measured after 45 mins by HPLC analysis relative to control
# Format: cell-based
# assaySetup: probe bilirubin (readout: bilirubin monoglucuronide level)

>  <molecule>
Sc1ncnc2nc[nH]c12 [MERCAPTOPURINE ANHYDROUS]

>  <inhibition at 0.75 h, 50 µM / %>
28

$$$$

* * *

# testedSystem: UniProt O70199
# assayText: Inhibition of UDPGDH in rat hepatocytes assessed as increase in unconjugated bilirubin level at 25 uM preincubated for 2 mins followed by UDPGA addition measured after 45 mins by HPLC analysis relative to control
# Assay type: cell-based
# assaySetup: probe bilirubin (readout: unconjugated bilirubin level)
propertyMeasured: inhibition at 0.75 h, 25 µM (%)

>  <compound>
Sc1ncnc2nc[nH]c12 [MERCAPTOPURINE ANHYDROUS]

>  <propertyMeasured>
inhibition at 0.75 h, 25 µM

>  <measuredNumber>
19

$$$$

* * *

# testedSystem: UDPGDH (UDP-glucose 6-dehydrogenase) (Rattus norvegicus)
# assayText: Inhibition of UDPGDH in rat hepatocytes assessed as decrease in bilirubin diglucuronide level at 10 uM preincubated for 2 mins followed by UDPGA addition measured after 45 mins by HPLC analysis relative to control
# Type: cell-based
# assaySetup: probe bilirubin (readout: bilirubin diglucuronide level)
propertyMeasured: inhibition at 0.75 h, 10 µM (%)

>  <structureSmiles>
O=c1[nH]c(=S)c2[nH]c(=O)[nH]c2[nH]1

>  <propertyMeasured>
inhibition at 0.75 h, 10 µM

>  <unitAbbreviation>
%

>  <measuredNumber>
86

$$$$

* * *

# testedSystem: UniProt:Q64550
# assayText: Inhibition of UGT1A in rat hepatocytes assessed as decrease in bilirubin monoglucuronide level at 10 uM preincubated for 2 mins followed by UDPGA addition measured after 45 mins by HPLC analysis relative to control
# Assay type: ADME, cell-based
# assaySetup: probe bilirubin (readout: bilirubin monoglucuronide level)
propertyMeasured: inhibition at 0.75 h, 10 µM

>  <structureSmiles>
CNC(=O)c1cc(Oc2ccc(NC(=O)Nc3ccc(Cl)c(C(F)(F)F)c3)c(F)c2)ccn1

>  <propertyMeasured>
inhibition at 0.75 h, 10 µM

>  <result>
89%

$$$$

* * *

# testedSystem: UDPGDH (UDP-glucose 6-dehydrogenase) (Rattus norvegicus, UniProt O70199)
# assayText: Inhibition of UDPGDH in rat hepatocytes assessed as decrease in bilirubin monoglucuronide level at 10 uM preincubated for 2 mins followed by UDPGA addition measured after 45 mins by HPLC analysis relative to control
# Assay type: cell-based
# assaySetup: probe bilirubin (readout: bilirubin monoglucuronide level)

>  <structureSmiles>
O=c1[nH]c(=S)c2[nH]c(=O)[nH]c2[nH]1

>  <inhibition at 0.75 h, 10 µM (%)>
81

$$$$

* * *

# testedSystem: UDPGDH (UDP-glucose 6-dehydrogenase) (Rattus norvegicus, UniProt O70199)
# assayText: Inhibition of UDPGDH in rat hepatocytes assessed as decrease in bilirubin diglucuronide level at 25 uM preincubated for 2 mins followed by UDPGA addition measured after 45 mins by HPLC analysis relative to control
# Type: cell-based
# assaySetup: probe bilirubin (readout: bilirubin diglucuronide level)

>  <compound>
Sc1ncnc2nc[nH]c12 [MERCAPTOPURINE ANHYDROUS]

>  <testedSystem>
UDPGDH (UDP-glucose 6-dehydrogenase) (Rattus norvegicus, UniProt O70199)

>  <inhibition at 0.75 h, 25 µM [%]>
12

$$$$

* * *

# Tested on: REH
# assayText: Cytotoxicity against human REH cells assessed as reduction in cell viability […] by Alamar Blue assay
# Type: functional, cell-based
pIC50: −log10 of the molar value.
Catalogue of molecules with associated pIC50
propertyMeasured: pIC50

>  <molecule>
Sc1ncnc2nc[nH]c12 [MERCAPTOPURINE ANHYDROUS]

>  <qualifierOperator>
=

>  <measuredNumber>
5.53

$$$$
>  <molecule>
Sc1ncnc2[nH]c(Cl)nc12

>  <qualifierOperator>
=

>  <measuredNumber>
5.40

$$$$
>  <molecule>
Oc1nc2c(S)ncnc2[nH]1

>  <qualifierOperator>
=

>  <measuredNumber>
5.00

$$$$
>  <molecule>
O=c1[nH]c(=S)c2[nH]c(=O)[nH]c2[nH]1

>  <qualifierOperator>
<

>  <measuredNumber>
5.00

$$$$
>  <molecule>
Fc1nc2c(S)ncnc2[nH]1

>  <qualifierOperator>
=

>  <measuredNumber>
5.33

$$$$
>  <molecule>
Sc1ncnc2[nH]c(Br)nc12

>  <qualifierOperator>
=

>  <measuredNumber>
5.02

$$$$
>  <molecule>
COc1cccc2c1C(=O)c1c(O)c3c(c(O)c1C2=O)C[C@@](O)(C(=O)CO)C[C@@H]3O[C@H]1C[C@H](N)[C@H](O)[C@H](C)O1

>  <qualifierOperator>
=

>  <measuredNumber>
6.55

$$$$
>  <molecule>
O=c1[nH]c(=S)c2nc[nH]c2[nH]1

>  <qualifierOperator>
<

>  <measuredNumber>
5.00

$$$$

* * *

# testedSystem: UDPGDH (UDP-glucose 6-dehydrogenase) (Rattus norvegicus, UniProt O70199)
# Sequence (O70199 whole entry): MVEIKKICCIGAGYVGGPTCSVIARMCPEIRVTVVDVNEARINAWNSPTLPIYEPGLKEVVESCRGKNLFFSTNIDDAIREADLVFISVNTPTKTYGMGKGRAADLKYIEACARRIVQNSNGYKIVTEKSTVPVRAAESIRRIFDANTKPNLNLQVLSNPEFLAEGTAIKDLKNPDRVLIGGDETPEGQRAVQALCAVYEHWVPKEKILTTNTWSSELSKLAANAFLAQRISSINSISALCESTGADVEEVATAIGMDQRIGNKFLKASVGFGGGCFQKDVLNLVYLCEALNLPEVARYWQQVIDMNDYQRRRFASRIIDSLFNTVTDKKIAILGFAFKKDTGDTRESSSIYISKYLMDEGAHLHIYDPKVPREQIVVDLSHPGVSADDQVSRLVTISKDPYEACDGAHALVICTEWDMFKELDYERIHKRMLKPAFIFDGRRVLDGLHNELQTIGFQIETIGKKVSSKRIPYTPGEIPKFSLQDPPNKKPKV
# assayText: Inhibition of UDPGDH in rat hepatocytes assessed as decrease in bilirubin monoglucuronide level at 25 uM preincubated for 2 mins followed by UDPGA addition measured after 45 mins by HPLC analysis relative to control
# Format: cell-based
# assaySetup: probe bilirubin (readout: bilirubin monoglucuronide level)

>  <compound>
Sc1ncnc2nc[nH]c12 [MERCAPTOPURINE ANHYDROUS]

>  <unitAbbreviation>
%

>  <inhibition at 0.75 h, 25 µM>
19

$$$$

* * *

# testedSystem: UDPGDH (UDP-glucose 6-dehydrogenase) (Rattus norvegicus)
# assayText: Inhibition of UDPGDH in rat hepatocytes assessed as decrease in bilirubin monoglucuronide level at 5 uM preincubated for 2 mins followed by UDPGA addition measured after 45 mins by HPLC analysis relative to control
# Type: cell-based
# assaySetup: probe bilirubin (readout: bilirubin monoglucuronide level)
propertyMeasured: inhibition at 0.75 h, 5 µM (%)

>  <structureSmiles>
O=c1[nH]c(=S)c2[nH]c(=O)[nH]c2[nH]1

>  <measuredNumber>
71

$$$$

* * *

# testedSystem: UGT1A (UDP-glucuronosyltransferase 1A1) (Rattus norvegicus, UniProt Q64550)
# Sequence (Q64550 whole entry): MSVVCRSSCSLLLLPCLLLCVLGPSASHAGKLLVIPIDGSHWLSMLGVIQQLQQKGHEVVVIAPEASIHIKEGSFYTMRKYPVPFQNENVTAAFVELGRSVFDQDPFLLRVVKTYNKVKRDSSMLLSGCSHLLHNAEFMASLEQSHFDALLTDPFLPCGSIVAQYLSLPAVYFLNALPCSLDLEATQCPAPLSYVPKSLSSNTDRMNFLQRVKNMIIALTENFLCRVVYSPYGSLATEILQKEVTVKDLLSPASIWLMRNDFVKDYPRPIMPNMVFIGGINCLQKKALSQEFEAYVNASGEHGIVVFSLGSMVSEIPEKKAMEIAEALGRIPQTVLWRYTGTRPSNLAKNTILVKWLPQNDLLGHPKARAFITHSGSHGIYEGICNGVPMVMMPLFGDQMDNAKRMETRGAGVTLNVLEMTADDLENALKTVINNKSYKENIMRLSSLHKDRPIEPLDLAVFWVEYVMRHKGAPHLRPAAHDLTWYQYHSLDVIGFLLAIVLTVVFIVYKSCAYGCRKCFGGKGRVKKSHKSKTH
# assayText: Inhibition of UGT1A in rat hepatocytes assessed as decrease in bilirubin diglucuronide level at 10 uM preincubated for 2 mins followed by UDPGA addition measured after 45 mins by HPLC analysis relative to control
# Assay type: ADME, cell-based
# assaySetup: probe bilirubin (readout: bilirubin diglucuronide level)
propertyMeasured: inhibition at 0.75 h, 10 µM (%)

>  <structureSmiles>
CNC(=O)c1cc(Oc2ccc(NC(=O)Nc3ccc(Cl)c(C(F)(F)F)c3)c(F)c2)ccn1

>  <propertyMeasured>
inhibition at 0.75 h, 10 µM

>  <unitAbbreviation>
%

>  <measuredNumber>
96

$$$$

* * *

The following molecules are listed with their measured Ki values.
# testedSystem: UDP-glucose 6-dehydrogenase (Rattus norvegicus, UniProt O70199)
# assayText: Inhibition of UDPGDH in rat hepatocytes after 20 to 120 secs by UV/Vis spectrophotometric analysis

>  <molecule>
Oc1nc2c(S)ncnc2[nH]1

>  <testedSystem>
UDP-glucose 6-dehydrogenase (Rattus norvegicus, UniProt O70199)

>  <Ki>
14 µM

$$$$
>  <molecule>
O=c1[nH]c(=S)c2[nH]c(=O)[nH]c2[nH]1

>  <testedSystem>
UDP-glucose 6-dehydrogenase (Rattus norvegicus, UniProt O70199)

>  <Ki>
7 µM

$$$$
>  <molecule>
O=c1[nH]c(=S)c2nc[nH]c2[nH]1

>  <testedSystem>
UDP-glucose 6-dehydrogenase (Rattus norvegicus, UniProt O70199)

>  <Ki>
54 µM

$$$$
>  <molecule>
Fc1nc2c(S)ncnc2[nH]1

>  <testedSystem>
UDP-glucose 6-dehydrogenase (Rattus norvegicus, UniProt O70199)

>  <Ki>
215 µM

$$$$
>  <molecule>
Sc1ncnc2[nH]c(Cl)nc12

>  <testedSystem>
UDP-glucose 6-dehydrogenase (Rattus norvegicus, UniProt O70199)

>  <Ki>
163 µM

$$$$
>  <molecule>
Sc1ncnc2[nH]c(Br)nc12

>  <testedSystem>
UDP-glucose 6-dehydrogenase (Rattus norvegicus, UniProt O70199)

>  <Ki>
192 µM

$$$$
>  <molecule>
Sc1ncnc2nc[nH]c12 [MERCAPTOPURINE ANHYDROUS]

>  <testedSystem>
UDP-glucose 6-dehydrogenase (Rattus norvegicus, UniProt O70199)

>  <Ki>
288 µM

$$$$
